Cited source for all entries: patent US20130190217A1

Experiment: High-Temperature High-Shear Viscosity (HTHS)
Assay type: physicochemical
Conditions: 150° C.
parameter: HTHS150° C. (mPa·s)

>  <molecule>
CC(C)CCCCCCCCCCOC(=O)CCCCCCCCCCC(=O)OCCCCCCCCCCC(C)C [C12D13, di(isotridecyl)dodecanedioate]

>  <parameter>
HTHS150° C.

>  <observed measurement>
2.7

$$$$

====

Reported NOACK by item:
Experiment: NOACK vaporization (physical vaporization according to Noack, 250° C. for 1 h)
Assay type: physicochemical
Conditions: Table 2, base oil

>  <molecule>
CC(C)CCCCCCCOC(=O)CCCCC(=O)OCCCCCCCC(C)C [Diisodecyl adipate]

>  <display unit>
%

>  <NOACK>
15.5

$$$$
>  <molecule>
CC(C)CCCCCCCOC(=O)CCCCCCCC(=O)OCCCCCCCC(C)C [Diisodecyl azelate]

>  <display unit>
%

>  <NOACK>
9.8

$$$$
>  <molecule>
CC(C)CCCCCCCCCCOC(=O)CCCCCCCCCCC(=O)OCCCCCCCCCCC(C)C [C12D13, di(isotridecyl)dodecanedioate]

>  <display unit>
%

>  <NOACK>
5.7

$$$$
>  <molecule>
CC(C)CCCCCCCCCCOC(=O)CCCCCCCC(=O)OCCCCCCCCCCC(C)C [C9D13, di(isotridecyl)nonanedioate]

>  <display unit>
%

>  <NOACK>
4.0

$$$$
